Parameter: IC50. Scope: all listed entries.
- Test system: A549
- experiment summary: cells
- Type: cell-based, human
- setup conditions: Homo sapiens, A549, 72 h, read-out: A549 IC50 (nM), 72 h exposure, SRB, mean ± SD
measurement type: IC50 (nM)

{"columns": ["molecule", "recorded value"],
 "data": [
  ["CNc1ccc2c(cc1=O)[C@@H](n1cc(COC(=O)CCC(F)(F)F)nn1)CCc1cc(OC)c(OC)c(OC)c1-2 [Compound 25]", 1.3],
  ["CNc1ccc2c(cc1=O)[C@@H](n1cc(CNC(=O)OC)nn1)CCc1cc(OC)c(OC)c(OC)c1-2 [Compound 37]", 7.2],
  ["CNc1ccc2c(cc1=O)[C@@H](n1cc(CNC(=O)CCNC(=O)OC(C)(C)C)nn1)CCc1cc(OC)c(OC)c(OC)c1-2 [Compound 34]", 26],
  ["CNc1ccc2c(cc1=O)[C@@H](N)CCc1cc(OC)c(OC)c(OC)c1-2 [Compound 3]", 12],
  ["CNc1ccc2c(cc1=O)[C@@H](n1cc(C3(O)CCCCC3)nn1)CCc1cc(OC)c(OC)c(OC)c1-2 [Compound 13]", 94],
  ["CNc1ccc2c(cc1=O)[C@@H](n1cc(CN)nn1)CCc1cc(OC)c(OC)c(OC)c1-2 [Compound 8]", 70],
  ["CCOC(=O)c1cn([C@H]2CCc3cc(OC)c(OC)c(OC)c3-c3ccc(NC)c(=O)cc32)nn1 [Compound 19]", 17]
]}
